# Tested on: protein titer of dupilumab production cell culture
# ASSAY_NAME: LC-MS analysis of HEPES related impurities and titer correlation evaluation across cell culture production runs
# Assay type: cell-based
# RECORDED_CONDITIONS: correlation of impurity abundance with final titer; 7 CDM1B media lots, Geel
Below, each entry is listed alongside its reported Pearson Correlation Coefficient, 7 CDM1B lots (Geel).
RESULT_TYPE: Pearson Correlation Coefficient, 7 CDM1B lots (Geel)

- COMPOUND: "O=CN1CCN(CCS(=O)(=O)O)CC1 [HEPES−[CH4]]"
  QUANTITATIVE_RESULT: "−0.83"
- COMPOUND: "CC(=O)NCS(=O)(=O)O"
  QUANTITATIVE_RESULT: "−0.34"
- COMPOUND: "C=CS(=O)(=O)O"
  QUANTITATIVE_RESULT: 0.41
- COMPOUND: "O=CN(CCO)CCN(C=O)CCS(=O)(=O)O [HEPES+[O2]−[H2]]"
  QUANTITATIVE_RESULT: "−0.68"
